Test system: M14 melanoma
METHOD SUMMARY: NCI tumour cell line growth inhibition, 48 h
QUANTITY NAME: TGI

Task: What value of TGI has been reported for the following compound? COc1ccc(C2CC(c3cccc(OC)c3)=NN2C(=O)c2cc(OC)c(OC)c(OC)c2)cc1 (stereo unspecified)
Output: > 29.3 µM

Task: What value of TGI has been reported for the following compound? CSC(=NC#N)S/C=C/C(=O)c1cccc2ccccc12
Output: > 100 µM

Task: What value of TGI has been reported for the following compound? Brc1ccc(N=Nc2ccc3ccccc3n2)cc1
Output: > 100 µM

Task: What value of TGI has been reported for the following compound? Cc1nnc2n1N=C(c1ccc(-c3ccc([N+](=O)[O-])cc3)o1)CS2
Output: > 100 µM

Task: What value of TGI has been reported for the following compound? Cn1ccc2c3c(=O)cc[nH]c3ccc21
Output: > 100 µM

Task: What value of TGI has been reported for the following compound? CC(C)c1ccc(/C=N/N=C(N)N)cc1
Output: 4.2 µM

Task: What value of TGI has been reported for the following compound? Cc1ccc(NC(=O)N2CCCCC2)cc1[N+](=O)[O-]
Output: > 100 µM

Task: What value of TGI has been reported for the following compound? C=C1C(=O)O[C@H]2[C@H]1CC/C(COC(=O)C(=O)c1c[nH]c3ccc(Cl)cc13)=C\CC[C@@]1(C)O[C@@H]21
Output: 3.62 µM

Task: What value of TGI has been reported for the following compound? Nc1ccc(S(=O)(=O)NCCS(=O)(=O)O)cc1
Output: > 100 µM

Task: What value of TGI has been reported for the following compound? C=C(C)CCN(C(=O)OC(C)(C)C)c1cc(C(C)C)co1
Output: > 100 µM

Task: What value of TGI has been reported for the following compound? Cc1[nH]c(=O)nc(N/N=C/c2ccc(Cl)cc2)c1C(=O)Nc1ccc(Cl)cc1
Output: 40.3 µM

* * *

Tested on: SF-268 CNS
METHOD SUMMARY: NCI tumour cell line growth inhibition, 48 h
I'd be grateful if you could share measured TGI for these entries.

Task: What value of TGI has been reported for the following compound? CCP(C)(C)=O
Output: > 100 µM

Task: What value of TGI has been reported for the following compound? CN(C)CCCN1c2ccc(O)cc2Sc2ccc(Cl)cc21
Output: 21 µM

Task: What value of TGI has been reported for the following compound? CC1(C)CC2C(/C1=N/O)C1(C)CCCC2(C)C1O (stereo not given)
Output: > 100 µM

Task: What value of TGI has been reported for the following compound? Cc1[nH]c(=O)nc(N/N=C/c2ccc(Cl)cc2)c1C(=O)Nc1ccc(Cl)cc1
Output: > 100 µM

Task: What value of TGI has been reported for the following compound? COc1ccc(OC)c([N+](=O)[O-])c1-c1nc2sc(C)c(C)n2c1/C=N/N=C(N)N
Output: > 100 µM

Task: What value of TGI has been reported for the following compound? COc1cc2oc(-c3cccc(C(=O)Nc4ccc(C)cc4)c3)cc(=O)c2c(OC)c1OC
Output: > 100 µM

Task: What value of TGI has been reported for the following compound? C/C(CC(=O)Nc1ccccc1)=N\NC(N)=S
Output: > 100 µM

Task: What value of TGI has been reported for the following compound? COC(=O)C1=CO[C@@H](OC2OC(CO)C(O)C(O)C2O)[C@@H]2[C@H](C)[C@@H](O)[C@@H](O)[C@]12O (stereo not given in full)
Output: > 100 µM

Task: What value of TGI has been reported for the following compound? CCOC(=O)C(C)c1nc2cc(C(F)(F)F)ccc2[nH]c1=O (stereo not given)
Output: > 100 µM

Task: What value of TGI has been reported for the following compound? O=C1Nc2ccc(CN3CCOC3=O)cc2/C1=C/c1cc(CN2CCOCC2)c[nH]1
Output: > 100 µM
